- Tested on: carbonyl reductase IsADH1
- ASSAY_METHOD_TEXT: Substrate specificity of IsADH1: carbonyl reductase activity by NADPH consumption (absorbance at 340 nm)
- Type: biochemical, Issatchankia scutulata var. scutulata JCM1828 strain
- Parameters: key: —: Activity cannot be detected; Trace: a slight level of activity is detected
- ASSAY_SETUP: purified carbonyl reductase, 2 mM substrate, 0.32 mM NADPH, 100 mM Tris-HCl (pH 7.5), 37° C.; activity to 1-acetoxy-3-chloro-2-propanone defined as 100
- Experimental: The Issatchankia scutulata var. scutulata JCM1828 strain was cultured in 2 L of a medium (80 g of glucose, 20 g of yeast extract (manufactured by Difco), and 40 g/L peptone (manufactured by Kyokuto Pharmaceutical Industrial Co., Ltd.)), and a cell mass was then prepared by centrifugation. […]

COMPOUND | TARGET_OR_TEST_SYSTEM | Relative activity
O=Cc1ccc(O)cc1 [p-hydroxybenzaldehyde] | carbonyl reductase IsADH1 | —
O=C1CN2CCC1CC2 [3-quinuclidinone] | carbonyl reductase IsADH1 | Trace
O=C(O)C(=O)Cc1ccccc1 [Phenylpyruvic acid] | carbonyl reductase IsADH1 | 12.2
CCC(=O)C(C)=O [2,3-pentadione] | carbonyl reductase IsADH1 | Trace
CCOC(=O)CC(=O)c1ccccc1 [Ethyl benzoylacetate] | carbonyl reductase IsADH1 | Trace
CC(=O)c1ccccc1 [Acetophenone] | carbonyl reductase IsADH1 | —
O=Cc1ccc(Cl)cc1 [p-chlorobenzaldehyde] | carbonyl reductase IsADH1 | 58.0
CCOC(=O)C(C)=O [Ethyl pyruvate] | carbonyl reductase IsADH1 | Trace

---

- System: carbonyl reductase IsADH1
- ASSAY_METHOD_TEXT: Substrate specificity of IsADH1: carbonyl reductase activity by NADPH consumption (absorbance at 340 nm)
- Type: biochemical, Issatchankia scutulata var. scutulata JCM1828 strain
- ASSAY_SETUP: purified carbonyl reductase, 2 mM substrate, 0.32 mM NADPH, 100 mM Tris-HCl (pH 7.5), 37° C.; activity to 1-acetoxy-3-chloro-2-propanone defined as 100
MEASURE: Relative activity

COMPOUND | RESULT
CCOC(=O)CC(C)=O [Ethyl 3-oxobutyrate] | 25.5
CCC(=O)c1ccccc1 | Trace
CC(=O)COc1ccccc1 | —
O=C(c1ccccc1)C(F)(F)F | 53.8
CCOC(=O)CC(=O)c1cccnc1 [Ethyl nicotinoylacetate] | 20.7
O=C1CC2CCC1C2 (stereo not drawn) | —

---

- Tested on: carbonyl reductase IsADH1
- ASSAY_METHOD_TEXT: Substrate specificity of IsADH1: carbonyl reductase activity by NADPH consumption (absorbance at 340 nm)
- Format: biochemical, Issatchankia scutulata var. scutulata JCM1828 strain
- ASSAY_SETUP: purified carbonyl reductase, 2 mM substrate, 0.32 mM NADPH, 100 mM Tris-HCl (pH 7.5), 37° C.; activity to 1-acetoxy-3-chloro-2-propanone defined as 100

COMPOUND | Relative activity
CCC(=O)c1cccnc1 [3-propionylpyridine] | 11.2
CCOC(=O)CC(=O)CCl [Ethyl 4-chloro-3-oxobutyrate] | 212
CC(=O)OCC(=O)CCl [1-acetoxy-3-chloro-2-propanone] | 100

---

- Tested on: carbonyl reductase IsADH1
- ASSAY_METHOD_TEXT: Substrate specificity of IsADH1: carbonyl reductase activity by NADPH consumption (absorbance at 340 nm)
- Type: biochemical, Issatchankia scutulata var. scutulata JCM1828 strain
- Set-up: key: —: Activity cannot be detected; Trace: a slight level of activity is detected
- ASSAY_SETUP: purified carbonyl reductase, 2 mM substrate, 0.32 mM NADPH, 100 mM Tris-HCl (pH 7.5), 37° C.; activity to 1-acetoxy-3-chloro-2-propanone defined as 100

MOLECULE | Relative activity
CC(=O)C(C)=O | —
CCOC(=O)C(=O)C(C)C [Ethyl 3-methyl-2-oxobutylate] | Trace
CC(=O)C(C)O (stereo not drawn) | —
